All figures here come from the supplement of paper PMC12645437.

Molecular target: T1, CRBN, Q96SW2;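 further: pooled lentiviral library of zinc finger degron-EGFP fusions in mCherry-positive Jurkat cells, FACS-sorted after compound exposure, with degron abundance counted by next-generation sequencing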
T1 chain: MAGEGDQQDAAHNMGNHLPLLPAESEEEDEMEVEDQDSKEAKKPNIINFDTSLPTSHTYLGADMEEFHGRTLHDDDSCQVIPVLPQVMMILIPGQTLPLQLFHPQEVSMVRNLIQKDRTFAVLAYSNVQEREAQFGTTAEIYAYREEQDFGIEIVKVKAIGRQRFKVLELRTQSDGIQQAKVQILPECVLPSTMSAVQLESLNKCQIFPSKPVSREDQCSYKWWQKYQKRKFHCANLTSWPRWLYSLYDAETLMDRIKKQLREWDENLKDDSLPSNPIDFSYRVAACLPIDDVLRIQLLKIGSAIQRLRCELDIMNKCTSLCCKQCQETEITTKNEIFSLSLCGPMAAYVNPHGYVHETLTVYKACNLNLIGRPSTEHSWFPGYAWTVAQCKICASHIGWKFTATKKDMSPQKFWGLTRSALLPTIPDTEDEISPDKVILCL
Experiment: log2 fold change of degron read counts, EGFP-low vs EGFP+ sorted cells (limma voom), compound-induced degradation; higher = more compound-induced degradation of the degron-EGFP fusion; degrons are variants of IKZF1/3 zinc finger 2; compound dose not given here
Conditions: Jurkat; 18 h; compound: compound 22 (5-morpholino-thalidomide)
Whole data set: some 8,300 sequences, median “log2 fold change of degron read counts, EGFP-low vs EGFP+ sorted cells (limma voom), compound-induced degradation” near -1.1, cut for the highest 2% near 3.2. The full list was thinned out, with the highest values kept by preference.
Short version: log2 fold change of degron read counts at least 2 is 1, less is 0.

Given the entry FTCEVCGAHFTQKGNLLRHIKL [46F_47T_49E_50V_52G_53A_54H_55F_67L_, Q9UKT9] , answer whether its log2 fold change of degron read counts meets or surpasses 2.
0

Given the entry FVCEVCGAHFTQKGNLLRHIKL [46F_47V_49E_50V_52G_53A_54H_55F_67L_, Q9UKT9] , answer whether its log2 fold change of degron read counts meets or surpasses 2.
0

Given the entry FWCEVCGAHFTQKGNLLRHIKL [46F_47W_49E_50V_52G_53A_54H_55F_67L_, Q9UKT9] , answer whether its log2 fold change of degron read counts meets or surpasses 2.
1

Given the entry FYCEVCGAHFTQKGNLLRHIKL [46F_47Y_49E_50V_52G_53A_54H_55F_67L_, Q9UKT9] , answer whether its log2 fold change of degron read counts meets or surpasses 2.
1

Given the entry FECNQCGANFTQKGNLLRHIKL [46F_47E_49N_50Q_52G_53A_54N_55F_67L_, Q9UKT9] , answer whether its log2 fold change of degron read counts meets or surpasses 2.
0

Given the entry FNCEICGRGFTQKGNLLRHIKL [46F_47N_49E_50I_52G_53R_54G_55F_67L_, Q9UKT9] , answer whether its log2 fold change of degron read counts meets or surpasses 2.
0

Given the entry FVCNICGACFTQKGNLLRHIKL [46F_47V_49N_50I_52G_53A_54C_55F_67L_, Q9UKT9] , answer whether its log2 fold change of degron read counts meets or surpasses 2.
0
